Target: T1, human ROR1 (full-length, on the cell surface) (human, UniProt Q01973 30-937)
T1 construct: whole, on cells; the tumour cell lines carry their own ROR1; also called Ba/F3-ROR1 cells; Jeko-1
T1 sequence (Q01973 30-937): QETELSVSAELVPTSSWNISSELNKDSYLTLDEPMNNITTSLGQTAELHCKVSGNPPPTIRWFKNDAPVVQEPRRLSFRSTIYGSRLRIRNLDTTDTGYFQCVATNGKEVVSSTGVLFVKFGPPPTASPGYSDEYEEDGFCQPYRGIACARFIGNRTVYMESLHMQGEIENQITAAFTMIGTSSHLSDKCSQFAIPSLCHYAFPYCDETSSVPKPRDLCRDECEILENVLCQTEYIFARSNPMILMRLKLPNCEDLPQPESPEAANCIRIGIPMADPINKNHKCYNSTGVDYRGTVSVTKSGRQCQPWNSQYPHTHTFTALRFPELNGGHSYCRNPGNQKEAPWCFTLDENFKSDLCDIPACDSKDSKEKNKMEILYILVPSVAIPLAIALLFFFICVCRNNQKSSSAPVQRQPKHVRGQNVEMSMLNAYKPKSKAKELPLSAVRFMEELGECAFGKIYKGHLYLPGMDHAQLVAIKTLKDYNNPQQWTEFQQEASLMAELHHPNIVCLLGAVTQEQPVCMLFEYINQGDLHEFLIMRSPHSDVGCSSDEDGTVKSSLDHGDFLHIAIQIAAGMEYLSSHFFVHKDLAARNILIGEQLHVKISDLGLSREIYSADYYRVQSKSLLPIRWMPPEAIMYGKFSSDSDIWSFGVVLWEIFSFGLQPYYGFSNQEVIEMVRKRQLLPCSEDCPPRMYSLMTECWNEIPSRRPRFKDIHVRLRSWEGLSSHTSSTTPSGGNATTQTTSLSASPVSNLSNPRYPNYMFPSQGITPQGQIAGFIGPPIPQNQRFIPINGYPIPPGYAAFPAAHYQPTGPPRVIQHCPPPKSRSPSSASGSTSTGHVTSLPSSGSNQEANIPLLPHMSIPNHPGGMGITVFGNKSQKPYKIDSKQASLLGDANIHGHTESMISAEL
Measurement notes: flow cytometry, Jeko-1 cells
Quick list: pEC50 per entry.
Please report pEC50 as the negative decimal logarithm of the molar concentration, giving only the number.

Study these solved cases before continuing.
INSERT INTO results (binder, endpoint_result) VALUES
  ('19F6-Hu22 (antibody, human IgG1, kappa, V domains shown, humanized, human IgG1 / kappa) VH: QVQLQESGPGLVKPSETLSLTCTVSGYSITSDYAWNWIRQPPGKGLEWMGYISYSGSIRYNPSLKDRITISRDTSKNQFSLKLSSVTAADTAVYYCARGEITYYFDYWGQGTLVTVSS VL: DIQMTQSPSSLSASVGDRVTITCITTTDIDDDMNWYQQKPGKAPKLLISEGNTLQSGVPSRFSGSGYGTDFTLTISSLQPEDFATYYCLQSNDLPLTFGQGTKLEIKR', 9.89),
  ('3D8-Hu56 (antibody, human IgG1, kappa, V domains shown, humanized, human IgG1 / kappa) VH: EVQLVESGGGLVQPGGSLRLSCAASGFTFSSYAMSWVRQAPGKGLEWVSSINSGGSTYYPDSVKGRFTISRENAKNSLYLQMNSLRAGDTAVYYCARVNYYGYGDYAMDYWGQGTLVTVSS VL: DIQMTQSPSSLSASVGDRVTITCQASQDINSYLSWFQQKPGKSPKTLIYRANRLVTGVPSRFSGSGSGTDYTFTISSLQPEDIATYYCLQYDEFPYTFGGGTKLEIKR', 10.05);

Input line: Recorded pEC50 of 3D8-Hu55 (antibody, human IgG1, kappa, V domains shown, humanized, human IgG1 / kappa) VH: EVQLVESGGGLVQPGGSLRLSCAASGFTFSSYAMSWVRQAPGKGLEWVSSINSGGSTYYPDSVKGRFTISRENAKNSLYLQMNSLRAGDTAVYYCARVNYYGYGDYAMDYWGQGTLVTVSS VL: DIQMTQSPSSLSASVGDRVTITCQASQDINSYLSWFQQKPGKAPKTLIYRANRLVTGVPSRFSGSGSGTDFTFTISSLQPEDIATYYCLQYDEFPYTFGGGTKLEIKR , please.
Output line: 10.40
